assay: yeast display, Sf9 membrane polyspecificity reagent, FACS + sequencing; frameworks hold sequencing errors

inputSequence | polyreactivity (PSR sort gate)
QVQLVESGGGLVQAGGSLRLSCAASGSTFAKYAMGWYRQAPGKERELVASIRLSGGSTYYADSVKGRFTISRDNAKNTVYLQMNSLKPEETAVYYCNKQFATFYYCFDYYYWGQGTQVTVSS | low polyreactivity
QVQLVESCGGLVKAGGSLRLSCDASGSTFYNNAMGWYRQAPGKERELVAVITSGGGSTYYADSVKGRFTISRDNAKNTVYLQMNSLKPEDTAVYYCAAKRPFYKYLWLDVRGNYWGQGTQVTVSS | low polyreactivity

====

assay: yeast display, Sf9 membrane polyspecificity reagent, FACS + sequencing; frameworks hold sequencing errors
readoutName: polyreactivity (PSR sort gate)

Example results:
inputSequence | readoutName | recordedResult
QVQLVESGGGLVQAGGTLRLSCADSGSTFAGNGMGWYRQAPGKERQLVAGIDVTGGSTYYADSVKGRFTISRDNAKNTVYLQMNSLKPEDTAVYYCAARVVRYGYKYYYWGQGTQVTVSS | polyreactivity (PSR sort gate) | low polyreactivity
QVQLVESGGGLVQAGGSLRLSCAASGFIFISNAMGWSRQAPGKERELVARISDTDRTHYADSVKGRFTISRDNAKNTVYLQMNSLKPEDTAVYYCAAYDYNAIEYGYWGQGSQVTVSS | polyreactivity (PSR sort gate) | low polyreactivity
QVQLVESGGGLVQAGGSLRLSCAASGSIFSDNAMGWYRQAPGKERELVASITNSGSTNYADSVKGRFTISRDNAKNTVYLQMNSLKPEDTAVYYCAFSFLYTYDYWGQGTQVTVSS | polyreactivity (PSR sort gate) | low polyreactivity
QVQLEESGGGLVQAGGSLRLSCAASGIIFSGNAMGWYRQAPGKERELVAANTRSGGTTYYADSVKGRFTISRDNAKNTVYLQMNSLKPEDTAVYYCAASYPLYVFYVSGYDYWGQGTQVTVSS | polyreactivity (PSR sort gate) | low polyreactivity
QVQLVESGGGLVQAGRSLRLSCAASGLIFYCYVMGWYRQAPRKERELVAGISRNSGSTYYADSVKGRFTISRDNAKNTVYLQMNSLKPEDTAVYYCAKAYYRRYAAPGYDYWGQVTQVTVSS | polyreactivity (PSR sort gate) | low polyreactivity
QDQLVESGGGLVQAGGSLRLSFAASGRIIYYNAMGWYRQAPGKERELVAAISFSDGSTYYADSVKGRFTISRDNAKKTVYLQMNSLKPEDTAVYYCAADIGYYYDYWGQGTLVTVSS | polyreactivity (PSR sort gate) | low polyreactivity
QVQLVESGGGLVQAGGSLRLSCAASGSIFSGNVMGWYRPAPGKERELVAAISGRGGSTYYPDSVKGRFTISRDNAKNTVFLQMNSRNPVDTAVYECAAVYLKTYYWGQGTQVTVSS | polyreactivity (PSR sort gate) | high polyreactivity
QVQLVESGGGIVQAGGSLRLSSAASGFTFYKYVMGWYRQSPGKERELVAAISYSSGSTYYADSVKGRFTISRDNAKNTVYLKMNSLKPDDTAVYYCAADSTYYGYAYYYWGQGSQVTVSS | polyreactivity (PSR sort gate) | high polyreactivity
QVQLVESGGGLVQAGGSLRLSCAASGSTFYFNAMGWYRQAPGKERELVAVIDGSGGFTYDADSVKGRFTISRDNAKNTVYLQMNSLKPEDTAVYYCNADLVYNTFIYSGGDEYDYWGQGTQGTVSS | polyreactivity (PSR sort gate) | high polyreactivity
QVQLVESGGGLVQAGGSLRLSCAASGSIFQGNVMGWYRPAPGKERELVAAISYSGDSTYYADSVKGRFTISRDNAKNTVYLQMNRLKPEDSAVYYCYAYRNRYGYRTSSRRYGYWGQGTQVTVSS | polyreactivity (PSR sort gate) | high polyreactivity

Now take the following sequence into account.
State the recorded polyreactivity (PSR sort gate) for this entry: "QVQLVESGGGLVQAGGSLRLSCAASGSIFDSNTMGWYRQAPRKERELVAAITGTGTSTYYADSVKGRFTISRDNAKNTVYLQMNSLKPEDTAVYYCAADLEYKTWWYDYWGQGTQVTVSS" low polyreactivity

Reference source for all entries: the nanobody polyreactivity screen of Harvey et al. (2022)
